- system: T1, human VPAC2 receptor (human, UniProt P41587 24-438)
- T1 sequence (looked up): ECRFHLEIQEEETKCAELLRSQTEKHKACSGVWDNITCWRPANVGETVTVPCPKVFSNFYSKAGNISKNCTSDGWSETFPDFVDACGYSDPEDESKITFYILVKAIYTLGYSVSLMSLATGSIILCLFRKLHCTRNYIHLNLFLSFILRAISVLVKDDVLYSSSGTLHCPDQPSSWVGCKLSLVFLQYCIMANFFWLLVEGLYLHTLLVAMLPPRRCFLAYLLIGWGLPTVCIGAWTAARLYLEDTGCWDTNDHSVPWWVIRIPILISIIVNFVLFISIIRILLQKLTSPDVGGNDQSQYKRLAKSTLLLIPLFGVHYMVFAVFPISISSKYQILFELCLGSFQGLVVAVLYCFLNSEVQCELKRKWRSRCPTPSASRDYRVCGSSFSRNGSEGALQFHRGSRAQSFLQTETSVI
- experiment_notes: cell-based or functional assay
If the reported Human VPAC2 Receptor: Alphascreen (EC50; nM) equals or exceeds 20 nM, assign 1. If not, assign -1.

Textbook exercise: given the entry HSDAVFTEQYTXLRXQLXAXXYLQSIXXGGPSSGAPPPCC (C6-HSDAVFTEQY(OMe)TOrnLRAibQLAbuAAibOrnYLQSIOrnOrnGGPSSGAPPPC(PEG20K)C(PEG20K)-NH2) [P590] , state whether its Human VPAC2 Receptor: Alphascreen (EC50; nM) is greater than or equal to 20 nM.
-1

Hi, just wondering whether HSDAVFTEQYTXLRXQVAAXXYLQSIXXXGGPSSGAPPPS (not fully specified; C6-HSDAVFTEQY(OMe)TOrnLRAibQVAAAibOrnYLQSIOrnK(WPEG40K)OrnGGPSSGAPPPS-NH2) [P454] shows Human VPAC2 Receptor: Alphascreen (EC50; nM) of 20 nM or higher.
1

Is Human VPAC2 Receptor: Alphascreen (EC50; nM) at least 20 nM? Consider HSDAVFTEQYTXLRXQLAXXXYLQXIXCXGGPSSGAPPPC (C6-HSDAVFTEQY(OMe)TOrnLRAibQLAAbuAibOrnYLQAibIOrnC(PEG20K)OrnGGPSSGAPPPC(PEG20K)-NH2) [P553]
-1

Can HSDAVFTEQYTXLRXQLAAXXYLQSIXXCGGPSSGAPPPS (C6-HSDAVFTEQY(OMe)TOrnLRAibQLAAAibOrnYLQSIOrnOrnC(PEG40K)GGPSSGAPPPS-NH2) [P560] be said to have Human VPAC2 Receptor: Alphascreen (EC50; nM) at or above 20 nM?
-1

Is Human VPAC2 Receptor: Alphascreen (EC50; nM) at least 20 nM? Consider HSDAVFTEQYTXLRXQLAAXXYXQSIXXGGPSSGAPPPCC (C6-HSDAVFTEQY(OMe)TOrnLRAibQLAAAibOrnYAibQSIOrnOrnGGPSSGAPPPC(PEG20K)C(PEG20K)-NH2) [P513]
1
